Measured GI50 by item
test system: OVCAR-3 ovarian; experiment: NCI tumour cell line growth inhibition, 48 h

{"columns": ["compound", "GI50"],
 "data": [
  ["CC1(C)N=C(N)N=C(N)N1c1ccc(OCC(=O)Nc2ccc(S(=O)(=O)F)cc2Cl)c(Cl)c1", "5.34 µM"],
  ["Nc1nc2ccc(CNc3ccc(C(=O)NC(CC(=O)O)C(=O)O)cc3)cc2c(=O)[nH]1 (configuration not stated)", "16.2 µM"],
  ["COc1cc2c(Nc3ccc(-c4ccc(N)cc4)cc3)ncnc2c(OC)c1OC", "6.43 µM"],
  ["CC[C@]12C=CCN3CC[C@@]4(c5ccc(OC)cc5N(C)[C@H]4[C@@](O)(C(=O)OC)[C@@H]1OC(=O)CCC(=O)O[C@H]1CC[C@H]4[C@@H]5CCC6=CC(=O)CC[C@@H]6[C@H]5CC[C@]14C)[C@@H]32", "1.73 µM"],
  ["Cc1cc(O)ccc1C1(c2ccc(O)cc2C)OC(=O)c2ccccc21", "16.4 µM"],
  ["Cc1ccc(NC(=S)NNC(=S)Nc2ccc(C)cc2)cc1", "2.9 µM"]
]}

Identify the measured GI50 of Cc1ccc2ncnc(N(C)C3CCCCC3)c2c1 for OVCAR-3 ovarian.
23.3 µM

###

system: TK-10 renal; assay: NCI tumour cell line growth inhibition, 48 h
Reported TGI by item:

{"columns": ["smiles-structure", "TGI"],
 "data": [
  ["COC(=O)[C@]12CC[C@H]3CN(S(=O)(=O)c4ccc(C)cc4)[C@H]([C@H]31)[C@H](c1ccco1)N2S(=O)(=O)c1ccc(C)cc1", "> 100 µM"],
  ["CC[O-].CC[O-].O=C1C=C([O-])C(=O)c2ccccc21.O=C1C=C([O-])C(=O)c2ccccc21.[Ti+4]", "> 100 µM"]
]}

Okay, now this compound:
Suppose we examine the compound Cc1cc(-c2nc3cc(F)ccc3s2)ccc1N ; what TGI value has been reported?
> 4.64 µM

###

The following molecules are shown together with reported TGI values.
tested on: K-562 leukemia; assay: NCI tumour cell line growth inhibition, 48 h

{"columns": ["molecule", "parameter-measured", "assay-value"],
 "data": [
  ["N#Cc1c(C#N)c(SSc2c(C#N)c(C#N)c(N)n2-c2cccc3ccccc23)n(-c2cccc3ccccc23)c1N", "TGI", "> 100 µM"]
]}

Endpoint output: TGI of C=CC(C)(C)NC(C(=O)N1CCC[C@H]1c1nc(-c2nc(C(=O)OCC=C(C)C)c(C)o2)c(C)o1)C(C)C (stereo partly specified) . Value?
> 100 µM

Quick one: TGI of CC(C)CC(N)C(=O)NC(CNC(CCC(N)=O)C(=O)NC(CC(C)C)C(=O)NC(CC(C)C)C(=O)O)Cc1ccc2ccccc2c1 (stereo unspecified) ?
> 10 µM

What measured TGI goes with c1cc2c(cc1C1OCC3C(c4ccc5c(c4)OCO5)OCC13)OCO2 (stereo unspecified) ?
> 100 µM

# input molecule: C#CN1C(=O)c2c(c(-c3ccccc3)c(-c3ccc(Oc4ccc(-c5c(-c6ccccc6)c6c(c(-c7ccccc7)c5-c5ccccc5)C(=O)N(C#C)C6=O)cc4)cc3)c(-c3ccccc3)c2-c2ccccc2)C1=O ; wanted: its TGI
> 100 µM

Any idea what TGI was measured for O=C(O)CN1C(=O)OC(c2ccccc2)C1=O (stereo unspecified) ?
> 100 µM

# TGI lookup, item CCOc1cc(Cl)c(C(C)NC(=O)c2cccc(OC)c2)cc1OCC (stereo unspecified)
> 100 µM

Find the recorded TGI belonging to O=S(=O)(O)c1c(Cl)c(Cl)c(O)c2ncccc12 and report it.
> 48.5 µM

Item c1ccc2c(c1)nc1ccccn12 has what recorded TGI?
> 100 µM

Which TGI is reported for this molecule? Cc1nn(CNc2ccc(F)c(Cl)c2)c(=S)n1/N=C/c1ccc(-c2ccc(Cl)cc2Cl)o1
15.5 µM

So what's the measured TGI for this one? CN1CCCS/C1=C1/SC(=S)N(c2ccccc2)C1=O
> 100 µM

These measurements were taken from PubChem BioAssay (NCI).
